Values compiled from patent US8592460B2.

- System tested: recombinant human S1P1 receptor (Homo sapiens, UniProt P21453)
- Sequence (P21453 whole entry): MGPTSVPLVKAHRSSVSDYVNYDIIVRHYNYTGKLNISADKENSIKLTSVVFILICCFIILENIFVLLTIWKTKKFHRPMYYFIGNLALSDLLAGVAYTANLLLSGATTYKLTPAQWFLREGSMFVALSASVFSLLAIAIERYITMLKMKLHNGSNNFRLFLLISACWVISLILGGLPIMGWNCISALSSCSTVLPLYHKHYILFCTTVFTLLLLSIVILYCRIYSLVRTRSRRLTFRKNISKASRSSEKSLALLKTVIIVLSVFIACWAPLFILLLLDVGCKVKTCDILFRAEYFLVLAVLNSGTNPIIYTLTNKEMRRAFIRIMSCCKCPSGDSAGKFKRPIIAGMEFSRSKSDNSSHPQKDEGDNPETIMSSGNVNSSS
- Experimental protocol: GTPγS assay to determine EC50 values
- Assay type: biochemical
- Reported conditions: agonistic activity; 35S-GTPγS binding, membrane preparations of CHO cells expressing recombinant human S1P1 receptor
pEC50: −log10 of the molar value.
Measure: pEC50

I = Cc1cc(-c2nc(-c3cc(C)c(OC[C@@H](O)CO)c(C)c3)no2)cc(N(C)C(C)C)n1 [Example 22]
II = Cc1cc(-c2nc(-c3cc(C)c(O)c(C)c3)no2)cc(N(C)C(C)C)n1 [Example 21]
III = CCc1cc(-c2nc(-c3cc(C)c(OCC(O)CNC(=O)CO)c(CC)c3)no2)cc(N(C)C)n1 (racemic) [Example 32]
IV = CCN(CC)c1cc(-c2nc(-c3cc(Cl)c(OC[C@H](O)CNC(=O)CO)c(OC)c3)no2)cc(C)n1 [Example 116]
In ascending order of recorded pEC50, list the molecules from the set above. The response must list the labels following the requested ordering. II, IV, III, I
